Listed here are compounds together with their documented IC50.
molecular target: HsaAB (HsaA, of the two-component flavin-dependent hydroxylase) (Mycobacterium tuberculosis, UniProt P9WJA1); test: biochemical
Sequence (P9WND9 whole entry): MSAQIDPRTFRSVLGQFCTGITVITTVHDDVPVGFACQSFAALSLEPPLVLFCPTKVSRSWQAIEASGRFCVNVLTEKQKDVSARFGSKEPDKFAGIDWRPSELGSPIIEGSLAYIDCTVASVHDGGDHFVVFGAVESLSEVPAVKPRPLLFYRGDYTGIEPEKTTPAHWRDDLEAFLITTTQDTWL
Sequence (P9WJA1 whole entry): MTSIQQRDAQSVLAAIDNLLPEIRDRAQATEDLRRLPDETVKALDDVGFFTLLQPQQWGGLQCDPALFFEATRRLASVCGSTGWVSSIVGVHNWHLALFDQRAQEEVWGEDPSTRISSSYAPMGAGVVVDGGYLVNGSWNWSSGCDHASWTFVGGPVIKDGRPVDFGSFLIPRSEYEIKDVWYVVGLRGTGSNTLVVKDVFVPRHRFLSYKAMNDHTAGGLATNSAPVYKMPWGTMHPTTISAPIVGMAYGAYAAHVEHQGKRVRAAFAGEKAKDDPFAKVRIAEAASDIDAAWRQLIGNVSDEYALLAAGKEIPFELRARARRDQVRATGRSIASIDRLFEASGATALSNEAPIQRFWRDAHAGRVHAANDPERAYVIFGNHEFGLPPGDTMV

| Compound | IC50 |
| --- | --- |
| Cc1cc(=O)n2[nH]c(-c3ccc(F)cc3)nc2n1 [V-13–012725] | 5 µM |

Query: Endpoint output: IC50 of Cc1noc(C)c1C(=O)Nc1nnc(-c2ccccc2)s1 [V-13–011503] . Value?
Result: 11 µM
